FYI, the data here is from PubChem BioAssay (NCI).

Tested on: UO-31 renal
testSummary: NCI-60 one-dose screen, 48 h (100 = growth as untreated, 0 = no growth, -100 = all killed)
assaySetup: 10 µM unless noted
The panel holds about 83,000 compounds, 20% with a hit somewhere; the sample as a whole holds those more often.
quantity: growth (%)
Numbers only, in %.

For orientation, consider the following solved cases.
O=CN1N=C(c2cccc(Nc3ccnc4cc(Cl)ccc34)c2)CC1c1ccccc1 (centres undefined) = 10.6
CCN1CCN(C(=O)[C@]23CCC(C)(C)C[C@@H]2C2=CC[C@@H]4[C@@]5(C)CCC(=O)C(C)(C)[C@@H]5CC[C@@]4(C)[C@]2(C)CC3)CC1 = 34.1
CCOC(=O)c1cc2c(n1Cc1cc(OC)c(OC)c(OC)c1)-c1nc(N)sc1CCC2 = 57

Query molecule follows.
Identify measured growth corresponding to `C=C(C)[C@@H]1CC[C@]2(CO)CC[C@]3(C)[C@H](CC[C@@H]4[C@@]5(C)CC[C@H](NCO)C(C)(C)[C@@H]5CC[C@]43C)[C@@H]12` -99.2

* * *

Tested on: SW-620 colon
testSummary: NCI-60 one-dose screen, 48 h (100 = growth as untreated, 0 = no growth, -100 = all killed)
assaySetup: 10 µM unless noted
Description: Growth inhibition of the SW-620 human tumor cell line is measured as a screen for anti-cancer activity. Cells are grown in 96 well plates and exposed to the test compound for 48 hours. Compounds are tested at a single concentration, which is 10^-5 M for most compounds. The reported endpoint is percent growth (GI% or GIPRCNT), where numbers from 0 - 100% represent growth inhibition, and numbers from -100% - 0 represent cell death. For example, a value of 40 represents 60% growth inhibition. […]
The panel holds about 83,000 compounds, 20% with a hit somewhere; the sample as a whole holds those more often.
Grouping rule (growth): small value: < 50%; mid value: ≥ 50% and < 90%; large value: ≥ 90%

Would you please look over these solved cases?
Cn1c(=O)cc2c3c(c(NCCCO)ccc31)C(=O)c1ccccc1-2 = small value
COc1ccccc1NC(=O)N=Nc1c(O)[nH]c2ccccc12 = mid value

Now for a further compound.
Please report the category associated with `O=C(CSc1nc2sc3c(c2c(=O)n1-c1ccccc1)CCCCC3)N/N=C/c1cccc([N+](=O)[O-])c1` , nothing else. mid value

* * *

Test system: EKVX NSCLC
testSummary: NCI-60 one-dose screen, 48 h (100 = growth as untreated, 0 = no growth, -100 = all killed)
assaySetup: 10 µM unless noted
Compounds without any hit were thinned out: in the full panel of roughly 83,000, 20% have a hit.
So basically: growth at 80% or higher? That is fulfilled. Lower than 80%? That is not fulfilled.

CCOC(=O)C1=C(c2ccccc2)N=C2SC=C(c3ccc(Cl)cc3)N2C1c1ccc(Br)cc1 (centres undefined) = not fulfilled
Cn1ccnc1C(=O)/C=C/c1ccc(CC(=O)Nc2cc(C(F)(F)F)cc(C(F)(F)F)c2)cc1 = fulfilled

Does `C=C1C(=O)O[C@H]2[C@H]1CC/C(COC(=O)NCc1ccc(Cn3c(=O)sn(CCCCC)c3=O)cc1)=C\CC[C@@]1(C)O[C@@H]21` have a reported growth of at least 80%? fulfilled

Does `O=C(Cn1cc(CSc2nc3ccccc3o2)nn1)Nc1ccc(F)cc1F` have a reported growth of at least 80%? fulfilled

Does `C=CCn1c(C)nc2ccc(Nc3nc(Nc4ccc5nc(C)n(CC=C)c5c4)c4ccccc4n3)cc21` have a reported growth of at least 80%? not fulfilled

Does `Cc1cc(=O)oc2cc(OCc3nn4c(Nc5nc6ccccc6s5)c(-c5ccccc5)nc4s3)ccc12` have a reported growth of at least 80%? fulfilled

Does `Cc1cccc(CNc2c3ccccc3nc3ccccc23)c1` have a reported growth of at least 80%? not fulfilled

Does `CCOC(=O)c1ccc2c(c1)nc(-c1ccccc1)n2C1CCCCC1` have a reported growth of at least 80%? fulfilled

Does `COc1cccc(/C=C2\COc3ccc(O)c(O)c3C2=O)c1` have a reported growth of at least 80%? not fulfilled

* * *

Test system: SNB-75 CNS
testSummary: NCI-60 one-dose screen, 48 h
assaySetup: 10 µM unless noted
This is part of a sample that, as a whole, favours compounds with a hit. Of some 83,000 tested, about 20% had one in any assay. Activity calls are given as the source filed them. How the source made its calls: active means growth percent below 10; inactive means the rest.
Please reply with one of these outcomes: true (1) (active), false (0) (inactive)

Would you please look over these solved cases?
Cc1ccc(-c2nc([P+](c3ccccc3)(c3ccccc3)c3ccccc3)c(S(=O)(=O)c3ccc(C)cc3)o2)cc1 = true (1)
O=C1NC(=C(Cl)Cl)/C(=N\S(=O)(=O)NCc2ccccc2)N1 = false (0)
O=c1c2ccccc2n2cnc3ccc(Cl)c1c32 = false (0)
C=CCSc1nnc(NC(=O)CCl)s1 = false (0)
COc1ccc(OC)c(Nc2nnc(-c3ccc(O)c(OC)c3)o2)c1 = false (0)
COc1ccc(CN2c3ccccc3Sc3ccccc32)cc1F = false (0)

Tell me the recorded outcome of this test for Fc1cnccc1C1CC(c2ccc(N3CCNCC3)cc2)=NN1 (stereo unspecified) . false (0)

Tell me the recorded outcome of this test for `CCSc1oc(-c2ccccc2)nc1[P+](c1ccccc1)(c1ccccc1)c1ccccc1` . true (1)

Tell me the recorded outcome of this test for CCN1C(=S)N(c2ccccc2)C2NC(=S)N(/N=C/C=C/c3ccccc3OC)C21 (stereo unspecified) . true (1)

Tell me the recorded outcome of this test for `CCOC(=O)c1nn(-c2ccc(S(N)(=O)=O)cc2)c2nc(C)cc(=O)n12` . false (0)

Tell me the recorded outcome of this test for `O=c1scc(-c2ccc(C(F)(F)F)cc2)s1` . false (0)

* * *

Tested on: PC-3 prostate
testSummary: NCI-60 one-dose screen, 48 h (100 = growth as untreated, 0 = no growth, -100 = all killed)
assaySetup: 10 µM unless noted
Compounds without any hit were thinned out: in the full panel of roughly 83,000, 20% have a hit.
quantity: growth (%)
Answers are plain numbers, in %.

CCOC(=O)[C@@H]1CSC(CC)=C(C(=O)O)N1 = -9.62
CCN(CC)S(=O)(=O)c1ccc(S(=O)(=O)N2CCC[C@@H](C(=O)N3CCN(c4nc(C(C)C)no4)CC3)C2)cc1 = 76.2
COc1ccc2cc1Oc1ccc(cc1)C[C@H]1c3c(cc4c(c3Oc3cc5c(cc3OC)CCN(C)[C@@H]5C2)OCO4)CCN1C = 43.9

Batch: growth for all items listed.
1. COc1ccccc1CNc1c2ccccc2nc2ccccc12
2. CS(=O)(=O)Nc1cncc(-c2ccc3ncnc(Nc4cncc(Cl)c4)c3c2)c1

1: 43.2; 2: 84.7

* * *

Tested on: RXF 393 renal
testSummary: NCI-60 one-dose screen, 48 h (100 = growth as untreated, 0 = no growth, -100 = all killed)
assaySetup: 10 µM unless noted
About 83,000 compounds went through this panel and 20% of them were active in at least one assay; those are over-represented in the sample as a whole.
quantity: growth (%)
Give bare numbers, in %.

For orientation, consider the following solved cases.
Cc1ccc(C[P+](c2ccccc2)(c2ccccc2)c2ccccc2)cc1 = 16.6
O=C(Nc1nc2cc(C(=O)N3CCN(C(c4ccccc4)c4ccccc4)CC3)ccc2o1)c1ccc(NC2CCCCC2)c([N+](=O)[O-])c1 = 74.9
N#Cc1c(-c2ccc(Cl)cc2)c(C#N)c2c(C#N)c(N)nn2c1N = 79.7
C#Cc1c2c(c(OC)c3c1OCO3)[C@H]([C@H]1OC(=O)c3c1ccc(OC)c3OC)N(C)CC2 = 92.3
COC1=CC(c2ccc[nH]2)=N/C1=C\c1[nH]c(C)c(CC(=O)OCc2ccccc2)c1CCC(=O)OCc1ccccc1 = -42.6

Batch: growth for all items listed.
1. Nc1nc(N)c(-c2ccc(Cl)c(Cl)c2)c(CBr)n1
2. NC(=O)c1c(NC(=O)c2ccc3ccccc3c2)sc2c1CCC(=O)C2
3. COc1ccc(F)cc1/C=C/C(=O)/C=C(/C=C/c1cc(F)ccc1OC)OB(F)F
4. COc1cc(OCc2cccc(Br)c2C)cc(OC)c1C=O

1. 90.6
2. 60.7
3. 18
4. 75.1

Batch: growth for all items listed.
1. O=C(Nc1ccccc1)Nc1ncnc2c1ncn2-c1ccc(Cl)cc1
2. Cc1cc(C)c2c(c1)N(C)c1ncnc(-n3cnc4cc(C)ccc43)c1CC2C (stereo not given)
3. CSc1nnc(-c2cc3c([nH]c4ccccc43)c(-c3cccc(O)c3)n2)n1-c1ccccc1
4. Oc1c(Br)cc(Br)c2ccc(Cn3cc(-c4ccc(C(F)(F)F)cc4)nn3)nc12

1: 91.7; 2: -24.8; 3: 9.95; 4: 1.8

Batch: growth for all items listed.
1. CCCCn1c(=O)[nH]c(N)c([C@@H]2c3c([nH]c(=O)n(CCCC)c3=O)Oc3ccc4ccccc4c32)c1=O
2. S=c1sc2c(Cl)nc(-c3cccnc3)nc2n1-c1ccccc1

99.6
-42.1
